Tested on: Scribble PDZ3
Experiment: Phosphomimetic ProP-PD selection with NGS
Type: binding, human
Details: mean over selections 1-3; bait Scribble PDZ3
Just a reminder that ties go to F: only Mean fraction #NGS counts wt peptide / total counts selection strictly below 0.001 counts as T.

Macromolecule sequence: MKRLTSTRL
Assigned class: T

Prompt: Is the reported Mean fraction #NGS counts wt peptide / total counts selection for VWLRKETRV strictly below 0.001?
Completion: F

Prompt: Is the reported Mean fraction #NGS counts wt peptide / total counts selection for ERLRVETDV strictly below 0.001?
Completion: T

Prompt: Is the reported Mean fraction #NGS counts wt peptide / total counts selection for SRKRTSSFL strictly below 0.001?
Completion: T
